Origin of the recorded values: patent US20250011363A1

Biological target: acetylcholine receptor
Test: SPR, AchR immobilised on chip, peptide 10 uM
metric: Binding affinity (RU)

binder	metric	test value
KKWYLR [6mer-1-243]	Binding affinity (RU)	136
RRLFCR [6mer-1-219]	Binding affinity (RU)	121
KNSAR [5mer-1136]	Binding affinity (RU)	25
RTTFK [5mer-1112]	Binding affinity (RU)	29
KRRQSK [6mer-1-268]	Binding affinity (RU)	144

A: KRSIQR [6mer-1-208]
B: REEVR [5mer-1141]
C: KHWHR [5mer-818]
Highest Binding affinity (RU) first, then in falling order down to the smallest. Form entry: ranked labels (order as requested).
A, B, C
(A: 122 RU, B: 26 RU, C: 12 RU)

P: KRQYLK [6mer-1-242]
Q: KDKPR [5mer-799]
When their Binding affinity (RU) values are compared, which is larger, P or Q ? Answer by stating the label of the chosen item.
P
(P: 148 RU, Q: 24 RU)
